# Measured Target: Na^+,K^+ -ATPase (Homo sapiens, UniProt P05023)
# Construct: Na^+,K^+ -ATPase receptor purified according to Jorghensen; from tissue
# Assay Remarks: displacement of the specific 3H-ouabain binding from the purified Na+,K+-ATPase receptor
# Condition Label: 3H-ouabain displacement, purified Na+,K+-ATPase; read-out: Binding ^3 H-Ouab. Displacement log IC50 (converted)
Threshold-based label: IC50 under 4 µM gives T, IC50 not under 4 µM gives F.

>  <Molecule>
C[C@]12CC[C@H]3[C@@H](CCC4=C[C@@H](OCCCN)CC[C@@]43C)[C@@]1(O)CC[C@]2(O)c1ccoc1 [Comp. I - aj]

>  <Group Label>
T

$$$$
>  <Molecule>
C[C@]12CC[C@H]3[C@@H](CC=C4C[C@@H](O)CC[C@@]43C)[C@@]1(O)CC[C@]2(O)c1ccccc1 [Comp. I - ap, 17β-Phenylandrost-5-ene-3β,14β,17α-triol]

>  <Group Label>
F

$$$$
>  <Molecule>
C[C@]12CC[C@H]3[C@@H](CCC4=C[C@@H](OCCCNC(=N)N)CC[C@@]43C)[C@@]1(O)CC[C@]2(O)c1ccoc1 [Comp. I - bu]

>  <Group Label>
T

$$$$
>  <Molecule>
C[C@]12CC[C@H]3[C@@H](C=CC4=C[C@@H](O)CC[C@@]43C)[C@@]1(O)CC[C@]2(O)c1ccccc1 [Comp. I - au]

>  <Group Label>
F

$$$$
>  <Molecule>
C[C@]12CC[C@H]3[C@@H](CCC4=C[C@@H](O)CC[C@@]43C)[C@@]1(O)CC[C@]2(O)c1ccccc1 [Comp. I - ac, 17β-Phenylandrost-4-ene-3β,14β,17α-triol]

>  <Group Label>
F

$$$$
>  <Molecule>
C[C@]12CC[C@H]3[C@@H](CC=C4C[C@@H](O)CC[C@@]43C)[C@@]1(O)CC[C@]2(O)c1nccs1 [Comp. I - bn]

>  <Group Label>
F

$$$$
>  <Molecule>
C[C@]12CC[C@H](O)C[C@@H]1CC[C@@H]1[C@@H]2CC[C@]2(C)[C@@](O)(c3ccsc3)CC[C@]12O [Comp. I - bk]

>  <Group Label>
F

$$$$
>  <Molecule>
CN(C)c1ccc([C@@]2(O)CC[C@]3(O)[C@@H]4CC=C5C[C@@H](O)CC[C@]5(C)[C@H]4CC[C@]23C)cc1 [Comp. I - bp]

>  <Group Label>
F

$$$$
>  <Molecule>
C[C@]12CC[C@H]3[C@@H](CCC4=C[C@@H](OCCN5CCCC5)CC[C@@]43C)[C@@]1(O)CC[C@]2(O)c1ccoc1 [Comp. I - br]

>  <Group Label>
T

$$$$
>  <Molecule>
C[C@]12CC[C@H]3[C@@H](CCC4=C[C@@H](OCCO)CC[C@@]43C)[C@@]1(O)CC[C@]2(O)c1ccoc1 [Comp. I - ai]

>  <Group Label>
F

$$$$
>  <Molecule>
CNCCO[C@@H]1C=C2CC[C@@H]3[C@H](CC[C@]4(C)[C@@](O)(c5ccoc5)CC[C@]34O)[C@@]2(C)CC1 [Comp. I - bt]

>  <Group Label>
T

$$$$
>  <Molecule>
C[C@]12CC[C@H]3[C@@H](CCC4=C[C@@H](O)CC[C@@]43C)[C@@]1(O)CC[C@]2(O)c1ccoc1 [Comp. I - ah]

>  <Group Label>
T

$$$$
>  <Molecule>
C[C@]12CC[C@H](O)C[C@@H]1CC[C@@H]1[C@@H]2CC[C@]2(C)[C@@](O)(c3ccccc3)CC[C@]12O [Comp. I - ay]

>  <Group Label>
F

$$$$
>  <Molecule>
C[C@]12CC[C@H]3[C@@H](CC=C4C[C@@H](O)CC[C@@]43C)[C@@]1(O)CC[C@]2(O)c1ccc(Cl)cc1 [Comp. I - bj]

>  <Group Label>
F

$$$$
>  <Molecule>
C[C@]12CC[C@H]3[C@@H](CC=C4C[C@@H](O)CC[C@@]43C)[C@@]1(O)CC[C@]2(O)c1ccco1 [Comp. I - bq]

>  <Group Label>
F

$$$$
>  <Molecule>
C[C@]12CC[C@H]3[C@@H](CCC4=C[C@@H](SCCCN)CC[C@@]43C)[C@@]1(O)CC[C@]2(O)c1ccoc1 [Comp. I - by]

>  <Group Label>
T

$$$$
>  <Molecule>
C[C@]12CC[C@H](O)C[C@@H]1CC[C@@H]1[C@@H]2CC[C@]2(C)[C@@](O)(c3cccnc3)CC[C@]12O [Comp. I - bl]

>  <Group Label>
F

$$$$
>  <Molecule>
COc1ccc([C@@]2(O)CC[C@]3(O)[C@@H]4CCC5=C[C@@H](O)CC[C@]5(C)[C@H]4CC[C@]23C)cc1 [Comp. I - bi]

>  <Group Label>
T

$$$$
